test: WST-1 cytotoxicity, wildtype U2OS cells; settings: human, wildtype U2OS cells
Examples of compounds with documented viability at 2 h, 100 µM follow.
Report only the number, with the unit % understood.

Consider the following illustrative entries.
| compound | endpoint-unit | viability at 2 h, 100 µM |
| --- | --- | --- |
| CC(C)c1ccc2oc3nc(N)c(C(=O)O)cc3c(=O)c2c1 | % | 77.3 |
| Cc1cc(-n2c(=O)[nH]c(=O)n(C)c2=O)ccc1Oc1ccc(SC(F)(F)F)cc1 | % | 101 |
| CN(CCOc1ccc(CC2SC(=O)NC2=O)cc1)c1ccccn1 (centres unmarked) | % | 104 |
| O=C(O)c1ccccc1Nc1cccc(C(F)(F)F)c1 | % | 104 |

[Q] Identify measured viability at 2 h, 100 µM corresponding to O=C(O)Cc1cc(I)c(Oc2ccc(O)c(I)c2)c(I)c1
[A] 81.6

* * *

target: UniProtKB Q14973; experiment: Screening fluorescent competitive Myrcludex B-FITC binding assay (96-well, 10 µM drug); details: Prestwick library screen, 10 µM drug; B-score of Myrcludex B-FITC binding
Where a name gives a salt, the structure may show the parent alone.
property: B-score binding assay
Enter a number only.

Consider the following illustrative entries.
| compound | system | B-score binding assay |
| --- | --- | --- |
| CCCCOC(=O)c1ccc(N)cc1 | UniProtKB Q14973 | 1.315 |
| Cc1[nH]c(=O)c(C#N)cc1-c1ccncc1 | UniProtKB Q14973 | 0.945 |
| O=C(NCNC(=O)NC1C(=O)NC(=O)N1CO)NC1C(=O)NC(=O)N1CO (stereo not drawn) | UniProtKB Q14973 | 0.346 |
| c1ccc2c(c1)CCCC2C1=NCCN1 (stereo not drawn) [Tetrahydrozoline hydrochloride] | UniProtKB Q14973 | 1.943 |
| CNCCC=C1c2ccccc2CCc2ccccc21 [Nortriptyline hydrochloride] | UniProtKB Q14973 | 1.407 |
| O.O=P(O)(O)C(O)(Cc1cccnc1)P(=O)(O)O [Risedronic acid monohydrate] | UniProtKB Q14973 | 0.727 |
| CCCCNc1ccc(C(=O)OCCOCCOCCOCCOCCOCCOCCOCCOCCOC)cc1 [Benzonatate] | UniProtKB Q14973 | 2.274 |
| CN1CCC(=C2c3ccccc3CCc3cccnc32)CC1 [Azatadine maleate] | UniProtKB Q14973 | 1.844 |

Next, consider the following compound.
[Q] Identify measured B-score binding assay corresponding to NS(=O)(=O)c1cc2c(cc1C(F)(F)F)NCNS2(=O)=O [Hydroflumethiazide]
[A] 0.137

* * *

target: human NTCP (Homo sapiens); assay: Screening taurocholate uptake assay (96-well, [14C]taurocholate, 10 µM drug); conditions: combined ranking of functional and binding screening assays
Structures can show the parent of a compound that is named as a salt.
// boundary case: Ranking score equal to 500 maps to N; strictly smaller maps to Y

Example entries and their recorded answers appear below.
| compound | group-label |
| --- | --- |
| C=CCN1CC[C@]23c4c5ccc(O)c4O[C@H]2C(=O)CC[C@@]3(O)[C@H]1C5 [Naloxone hydrochloride] | N |
| NS(=O)(=O)c1cc(C(=O)O)c(NCc2ccco2)cc1Cl [Furosemide] | N |
| COC1=CC(=O)C[C@@H](C)[C@]12Oc1c(Cl)c(OC)cc(OC)c1C2=O | Y |
| CC(=O)OCC(=O)[C@@]12OC3(CCCC3)O[C@@H]1C[C@H]1[C@@H]3CCC4=CC(=O)C=C[C@]4(C)[C@@]3(F)[C@@H](O)C[C@@]12C [Amcinonide] | N |

[Q] I'd appreciate it if you could check whether COc1cc2ncnc(Nc3ccc(F)c(Cl)c3)c2cc1OCCCN1CCOCC1 has Ranking score smaller than 500.
[A] N

[Q] I'd appreciate it if you could check whether CCS(=O)(=O)CCn1c([N+](=O)[O-])cnc1C has Ranking score smaller than 500.
[A] Y

[Q] I'd appreciate it if you could check whether O=C1NCN(c2ccccc2)C12CCN(CCCC(c1ccc(F)cc1)c1ccc(F)cc1)CC2 has Ranking score smaller than 500.
[A] N

* * *

target: human NTCP (Homo sapiens, UniProt Q14973); experiment: Screening taurocholate uptake assay (96-well, [14C]taurocholate, 10 µM drug); settings: ranking over the functional and the binding screening assay
Sequence (Q14973 whole entry): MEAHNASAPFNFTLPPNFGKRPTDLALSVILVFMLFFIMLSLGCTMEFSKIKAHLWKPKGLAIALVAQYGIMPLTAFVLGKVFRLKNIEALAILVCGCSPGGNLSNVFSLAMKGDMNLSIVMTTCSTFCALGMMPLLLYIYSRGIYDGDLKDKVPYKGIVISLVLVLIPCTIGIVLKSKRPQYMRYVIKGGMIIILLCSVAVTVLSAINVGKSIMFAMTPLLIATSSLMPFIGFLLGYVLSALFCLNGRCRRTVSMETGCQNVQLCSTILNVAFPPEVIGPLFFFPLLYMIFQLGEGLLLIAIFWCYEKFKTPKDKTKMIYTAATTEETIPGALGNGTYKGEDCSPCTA
Counter-ions that a name gives are not always drawn.
Examples of compounds with documented Ranking score follow.
Enter a number only.

Consider the following illustrative entries.
| compound | Ranking score |
| --- | --- |
| CC/C(=C(/CC)c1ccc(O)cc1)c1ccc(O)cc1 [Diethylstilbestrol] | 262.907 |
| COC(=O)Nc1nc2ccc(SC(C)C)cc2[nH]1 [Methiazole] | 275.739 |
| CC#C[C@]1(O)CC[C@H]2[C@@H]3CCC4=CC(=O)CCC4=C3[C@@H](c3ccc(N(C)C)cc3)C[C@@]21C [Mifepristone] | 246.499 |
| CC(=O)Oc1cccc2c1C(=O)c1c(OC(C)=O)cc(C(=O)O)cc1C2=O [Diacerein] | 199.08 |
| O=c1[nH]c2ccccc2n1C1CCN(CCCC(c2ccc(F)cc2)c2ccc(F)cc2)CC1 [Pimozide] | 234.734 |
| Cl.Cl.OCCN1CCN(CC/C=C2/c3ccccc3Sc3ccc(Cl)cc32)CC1 [Zuclopenthixol dihydrochloride] | 243.28 |
| COC(=O)[C@@H]1[C@H]2C[C@H]3c4[nH]c5ccccc5c4CCN3C[C@@H]2CC[C@@H]1O [Yohimbine hydrochloride] | 229.785 |

[Q] Identify measured Ranking score corresponding to Cl.Cl.c1ccc2c(c1)CCCc1cc(NCCN3CCOCC3)nnc1-2
[A] 77.0714

* * *

target: human NTCP (Homo sapiens); assay: Screening fluorescent competitive Myrcludex B-FITC binding assay (96-well, 10 µM drug); details: screen, 10 µM drug, Myrcludex B-FITC binding
Counter-ions that a name gives are not always drawn.
property: B-score binding assay
Enter a number only.

| compound | system | numeric-value |
| --- | --- | --- |
| CC(C)(Oc1ccc(CCNC(=O)c2ccc(Cl)cc2)cc1)C(=O)O [Bezafibrate] | human NTCP (Homo sapiens) | 0.184 |
| O=C1NCCN1c1ncc([N+](=O)[O-])s1 | human NTCP (Homo sapiens) | -0.358 |
| CC(=O)OCC(=O)[C@@]1(OC(C)=O)[C@@H](C)C[C@H]2[C@@H]3C[C@H](F)C4=CC(=O)C=C[C@]4(C)[C@@]3(F)[C@@H](O)C[C@@]21C [Diflorasone Diacetate] | human NTCP (Homo sapiens) | -1.118 |
| CC(CNC1CCCCC1)OC(=O)c1ccccc1 (centres unmarked) [Hexylcaine hydrochloride] | human NTCP (Homo sapiens) | -1.021 |
| O=C1Cc2cc(CCN3CCN(c4nsc5ccccc45)CC3)c(Cl)cc2N1 [Ziprasidone Hydrochloride] | human NTCP (Homo sapiens) | -0.675 |
| CCN(CC)CCOC(=O)c1ccc(N)cc1 [Procaine hydrochloride] | human NTCP (Homo sapiens) | 0.574 |
| C[C@]12CC[C@H](O)C[C@H]1CC[C@@H]1[C@@H]2C[C@@H](O)[C@]2(C)[C@@H](C3=CC(=O)OC3)CC[C@]12O | human NTCP (Homo sapiens) | -1.199 |

[Q] Identify measured B-score binding assay corresponding to COc1ccccc1OCCNCC(O)COc1cccc2[nH]c3ccccc3c12 (centres unmarked)
[A] -0.836

* * *

Examples of molecules with documented B-score functional assay follow.
target: human NTCP (Homo sapiens, UniProt Q14973); assay: Screening taurocholate uptake assay (96-well, [14C]taurocholate, 10 µM drug); details: screen, 10 µM drug, taurocholate uptake
Structures can show the parent of a compound that is named as a salt.

Consider the following illustrative entries.
| molecule | property | result |
| --- | --- | --- |
| Nc1ccn([C@@H]2CS[C@H](CO)O2)c(=O)n1 | B-score functional assay | 0.533 |
| CC1(C)OC(=O)NC1=O | B-score functional assay | 0.349 |
| COC(=O)C1=C(C#N)NC(C)=C(C(=O)OC(C)C)C1c1cccc([N+](=O)[O-])c1 (centres unmarked) | B-score functional assay | -2.135 |
| C1CCC(C(CC2CCCCN2)C2CCCCC2)CC1 (centres unmarked) [Perhexiline maleate] | B-score functional assay | -0.011 |
| [H]/N=C(\N/C(=N/[H])Nc1ccc(Cl)cc1)NC(C)C [Proguanil hydrochloride] | B-score functional assay | -0.025 |

[Q] Identify measured B-score functional assay corresponding to Cc1c(N(C)CS(=O)(=O)[O-])c(=O)n(-c2ccccc2)n1C.[Na+]
[A] -0.152

[Q] Identify measured B-score functional assay corresponding to COc1ccc(CN2CCNCC2)c(OC)c1OC [Trimetazidine dihydrochloride]
[A] 0.211

[Q] Identify measured B-score functional assay corresponding to Clc1ccc(C(c2ccccc2Cl)C(Cl)Cl)cc1 (centres unmarked)
[A] -2.371

[Q] Identify measured B-score functional assay corresponding to Cl.Clc1ccc(Cn2c(CN3CCCC3)nc3ccccc32)cc1 [Clemizole hydrochloride]
[A] 2.268

[Q] Identify measured B-score functional assay corresponding to O=C(Oc1cccc2cccnc12)c1ccccc1
[A] -0.093
